- System: KM20L2 colon
- protocol.summary: NCI tumour cell line growth inhibition, 48 h
readout.name: TGI

molecule	TGI
O=C1C2C(C(=O)N1c1ccccc1)C1(Br)c3ccccc3C2(Br)C2C(=O)N(c3ccccc3)C(=O)C21 (stereo not given)	> 31.6 µM
O=C1/C(=C\c2ccccc2)C2/C(=C\c3ccccc3)C(=O)/C(=C\c3ccccc3)C2/C1=C\c1ccccc1 (stereo not given)	3.55 µM
C=C1CCC2C(C)(CO)C(O)CCC2(C)C1CC(O)/C(=C/CO)C(=O)O (stereo not given)	> 100 µM
COc1ccc(C2=C3c4cc(OC)c(OC)cc4CCN3C(=S)SS2)cc1OC	> 100 µM

Alright, here's another molecule for you.
QUERY: Which value of TGI has been reported for `Cc1cc(N(CCC#N)CCC#N)ccc1/C=C\C(=O)Nc1ccccc1` in the records?
RESULT: > 100 µM

====

Reported log10 TGI values for a set of molecules
- Test system: MALME-3M melanoma
- protocol.summary: NCI tumour cell line growth inhibition, 48 h
Remember, log10 of TGI, in µM.

molecule	obs.value
Cc1cc2[nH]c(Cl)c(/C=C3\C(=O)Nc4ccccc43)c2cc1O	1.21
CC1=NN(c2nc(N)nc(C(C#N)C(=O)c3cc4c(cc3Cl)Sc3nccn3S4(=O)=O)n2)C(C)(C)C1 (centres undefined)	1.69
CCN(CC)C(=S)N/N=C(\C)c1cccc(C)n1	0.87
CCN1CCN(c2cc(C)nc(N(CCNc3ccnc4cc(Cl)ccc34)Cc3ccc4c(c3)OCO4)n2)CC1	0.53
CC(C)(C)C(=O)N(C(=S)OCc1ccccn1)c1ccccc1	1.65
O=c1c2cc(F)ccc2sc2c(N3CCNCC3)nc3ccccc3c12	0.51

QUERY: Which value of log10 TGI has been reported for `O=C(/C=C/c1ccc(Cl)cc1)/C=C/c1cc2ccccc2[nH]c1=O` in the records?
RESULT: 1.58

QUERY: Which value of log10 TGI has been reported for `CCCCN1CCN(c2ccc3nc(-c4ccc5nc(-c6ccc(OC)c(OC)c6)[nH]c5c4)[nH]c3c2)CC1` in the records?
RESULT: 0.10

====

- System: 786-0 renal
- protocol.summary: NCI tumour cell line growth inhibition, 48 h
readout.name: GI50

QUERY: What is its GI50 for 786-0 renal? Entry: `CCCS(=O)(=O)Nc1ccc(F)c(C(=O)c2c[nH]c3ncc(Cl)cc23)c1F`
RESULT: 10.7 µM

QUERY: What is its GI50 for 786-0 renal? Entry: `CN(C)CCCOc1ccc(OCCCN(C)C)c2c1C(=O)c1ccccc1C2=O`
RESULT: 1.77 µM

QUERY: What is its GI50 for 786-0 renal? Entry: `O=C(NCc1ccc(Cl)cc1Cl)c1ccc(NC2=C(Cl)C(=O)N(Cc3ccccc3)C2=O)cc1`
RESULT: 30.1 µM

====

- System: M14 melanoma
- protocol.summary: NCI tumour cell line growth inhibition, 48 h
Reported TGI values for a set of compounds

Field: example entries. Status: answers known.
compound	TGI
[N-]=[N+]=Nc1ccccc1Oc1ccccc1	> 100 µM
Cc1ccc(C(=O)Nc2ccccc2)cc1N=NN(C)C	> 100 µM
CN1C2CCC1CC(CC(=O)NC(c1ccc(F)cc1)c1ccc(F)cc1)C2 (stereo unspecified)	33.7 µM
C1CSCCCSCCCSCCCSCCCSC1	> 100 µM
COc1cc2c(cc1O)NC(=S)[C@@H]1CCCN1C2=O	> 100 µM
CCOc1nc(-c2ccccc2)cc2c(O)c(C(=O)N/N=C/c3ccc(O)cc3O)[nH]c(=O)c12	7.16 µM
O=C(CC1=Nc2nnc(CCCCCCCc3nnc4n3C(=O)C(CC(=O)c3ccccc3)=N4)n2C1=O)c1ccccc1	> 100 µM
Cn1c(=O)[nH]c2nccnc2c1=O	> 10 µM

QUERY: What is its TGI for M14 melanoma? Entry: `O=C1C=CC(=O)N1C1CCCCCCCCCCC1`
RESULT: 25.8 µM

QUERY: What is its TGI for M14 melanoma? Entry: `O=c1c2cc([N+](=O)[O-])ccc2[nH]n1Cc1ccccn1`
RESULT: > 100 µM

QUERY: What is its TGI for M14 melanoma? Entry: [C-]#[N+][C@@H]1C2[C@H](CC[C@@]1(C)O)C(=C)CC[C@@H]2[C@@]1(C)CC[C@H](Cl)C(C)(C)O1 (stereo partly specified)
RESULT: 12.6 µM
